- method: MTT cytotoxicity assay, normal cell line HEK 293
- Type: cell-based
- test conditions: human, HEK 293 cells, HEK 293 normal cells, 48 h exposure
readout name: viability at 48 h, 10 µM (%)
Give your result in % as a bare value.

COc1ccc(C(=O)Cn2cc(CNC(=O)CC[C@@H](C)C3CCC4C5CCC6C[C@H](O)CC[C@]6(C)C5C[C@H](O)[C@@]43C)nn2)cc1 (stereo partly drawn) = 86.5
COc1ccc(C(=O)Cn2cc(COC(=O)CC[C@@H](C)C3CCC4C5C(C[C@H](O)[C@@]43C)[C@@]3(C)CC[C@@H](O)CC3C[C@H]5O)nn2)cc1 (stereo partly drawn) = 87.9

Problem: Return viability at 48 h, 10 µM for the following compound: C[C@H](CCC(=O)OCc1cn(CC(=O)c2ccccc2)nn1)C1CCC2C3C(C[C@H](O)[C@@]21C)[C@@]1(C)CC[C@@H](O)CC1C[C@H]3O (stereo partly drawn)
Result: 86.1

The values you see were collected from paper PMC8510344.
